target: UniProtKB P08684; experiment: Cytochrome inhibition, fluorometric microtiter plate assay; format: in vitro ADME; settings: CYP3A4 cytochrome inhibition (IC50, concentrations in μM for 50% inhibition), human recombinant CYP3A4, substrate BFC; compounds of the invention
reported-property: IC50

| compound | reported-property | recorded-result |
| --- | --- | --- |
| OC1CCC(c2ccc(OCCCN3CCCCC3)cc2)CC1 (centres unmarked) | IC50 | > 10 µM |

Next:
Incoming: Report value only: IC50, UniProtKB P08684, CC1CCCN1CCCOc1ccc([C@H]2CC[C@H](O)CC2)cc1 (some centres unmarked)
Outgoing: > 10 µM

* * *

Here, each record is paired with measured IC50 data.
molecular target: CYP2D6 (Homo sapiens, UniProt P10635); experiment: Cytochrome inhibition, fluorometric microtiter plate assay; type: in vitro ADME; settings: CYP2D6 cytochrome inhibition (IC50, concentrations in μM for 50% inhibition), human recombinant CYP2D6, substrate AMMC; compounds of the invention
Sequence (P10635 whole entry): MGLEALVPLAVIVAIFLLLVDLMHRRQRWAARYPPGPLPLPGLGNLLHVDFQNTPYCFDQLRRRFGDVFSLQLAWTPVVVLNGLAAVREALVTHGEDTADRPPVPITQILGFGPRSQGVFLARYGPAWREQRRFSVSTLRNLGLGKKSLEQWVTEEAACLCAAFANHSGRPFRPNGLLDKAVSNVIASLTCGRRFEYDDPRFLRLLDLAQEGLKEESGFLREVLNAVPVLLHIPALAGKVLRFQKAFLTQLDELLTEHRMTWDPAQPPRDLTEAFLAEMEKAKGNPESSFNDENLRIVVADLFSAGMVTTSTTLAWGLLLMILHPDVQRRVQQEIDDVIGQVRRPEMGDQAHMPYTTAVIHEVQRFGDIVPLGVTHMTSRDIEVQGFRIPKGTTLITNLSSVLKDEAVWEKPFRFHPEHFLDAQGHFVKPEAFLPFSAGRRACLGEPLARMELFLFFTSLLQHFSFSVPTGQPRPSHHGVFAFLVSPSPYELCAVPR

| molecule | IC50 |
| --- | --- |
| c1cc(-c2ccc(OCCCN3CCCCC3)cc2)ccn1 [Example 30] | 7 µM |
| C[C@@H]1C[C@@H](C)CN(CCCOc2ccc([C@H]3CC[C@@H](N(C)C)CC3)cc2)C1 (relative stereo) [Example 20] | > 10 µM |

Incoming: Provide one value: measured IC50 of C[C@H]1C[C@H](C)CN(CCCOc2ccc(-c3ccccc3)cc2)C1 [Example 23]
Outgoing: 13 µM

Incoming: Provide one value: measured IC50 of C[C@H]1CCCN(CCCOc2ccc(-c3cc[n+](C)cc3)cc2)C1 [Example 57]
Outgoing: > 10 µM

Incoming: Provide one value: measured IC50 of CN1CCC(OCc2ccc(OCCCN3CCCCC3)cc2)CC1 [Example 67]
Outgoing: > 10 µM

Incoming: Provide one value: measured IC50 of c1cc(-c2ccc(OCCCN3CCCCC3)cc2)ccc1OCCCN1CCCCC1 [Example 35]
Outgoing: 71 µM

Incoming: Provide one value: measured IC50 of OC1CCC(c2ccc(OCCCN3CCCCC3)cc2)CC1 (stereo not shown) [Example 60]
Outgoing: > 10 µM

Incoming: Provide one value: measured IC50 of c1cc(-c2ccc(OCCCN3CCCCC3)cc2)cs1 [Example 29]
Outgoing: 24 µM

* * *

biological target: CYP3A4 (Homo sapiens, UniProt P08684); test: Cytochrome inhibition, fluorometric microtiter plate assay; format: in vitro ADME; details: CYP3A4 cytochrome inhibition (IC50, concentrations in μM for 50% inhibition), human recombinant CYP3A4, substrate BFC; compounds of the invention
Sequence (P08684 whole entry): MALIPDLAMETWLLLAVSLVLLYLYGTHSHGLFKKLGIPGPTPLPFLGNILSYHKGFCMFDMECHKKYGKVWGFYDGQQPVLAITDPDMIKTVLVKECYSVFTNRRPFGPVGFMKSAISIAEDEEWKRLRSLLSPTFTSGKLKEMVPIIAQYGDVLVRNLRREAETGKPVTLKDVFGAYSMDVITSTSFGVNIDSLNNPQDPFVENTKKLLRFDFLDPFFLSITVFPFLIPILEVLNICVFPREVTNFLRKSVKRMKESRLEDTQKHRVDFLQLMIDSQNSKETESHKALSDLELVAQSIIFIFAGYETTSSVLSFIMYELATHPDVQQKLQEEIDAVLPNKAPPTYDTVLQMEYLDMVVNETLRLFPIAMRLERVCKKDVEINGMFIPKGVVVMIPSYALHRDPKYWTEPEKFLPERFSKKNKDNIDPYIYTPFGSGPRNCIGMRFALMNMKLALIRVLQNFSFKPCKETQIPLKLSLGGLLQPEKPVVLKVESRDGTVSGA
Here, each record is paired with measured IC50 data.

These solved cases illustrate the format of a correct answer.
| smiles-code | IC50 |
| --- | --- |
| C[C@H]1CCCN(CCCOc2ccc(-c3ccnc(Cl)c3)cc2)C1.O=C(O)C(=O)O.O=C(O)C(=O)O | > 1 µM |
| C[C@H]1CCCN(CCCOc2ccc([C@H]3CC[C@H](O)CC3)cc2)C1 | > 10 µM |
| C(=C\c1ccc(-c2ccc(OCCCN3CCCCC3)cc2)cc1)/CN1CCCCC1 | > 1 µM |
| C[C@H]1CCCN(CCCOc2ccc(-c3cc[n+](C)cc3)cc2)C1 | > 10 µM |
| N#CCc1ccc(OCCCN2CCCCC2)cc1 | > 10 µM |

Next:
Incoming: Provide one value: measured IC50 of c1cc(-c2ccc(OCCCN3CCCCC3)cc2)ccc1CN1CCCCC1
Outgoing: > 10 µM

* * *

target: CYP2D6 (Homo sapiens); assay: Cytochrome inhibition, fluorometric microtiter plate assay; type: in vitro ADME; conditions: CYP2D6 cytochrome inhibition (IC50, concentrations in μM for 50% inhibition), human recombinant CYP2D6, substrate AMMC; compounds of the invention
reported-property: IC50

These solved cases illustrate the format of a correct answer.
| compound | IC50 |
| --- | --- |
| N#CCc1ccc(OCCCN2CCCCC2)cc1 [Example 4] | > 10 µM |
| Cc1cc(-c2ccc(OCCCN3CCC[C@H](C)C3)cc2)cc[n+]1[O-] [Example 54] | > 10 µM |
| C=C(C)c1ccc(OCCCN2C[C@@H](C)C[C@H](C)C2)cc1 (relative stereo) [Example 10] | 47 µM |
| c1ccc(-c2ccc(OCCCN3CCCC3)cc2)cc1 [Example 21] | > 10 µM |
| C[C@H]1C[C@H](C)CN(CCCOc2ccc(C(=O)N(C)C)cc2)C1 (relative stereo) [Example 1] | > 10 µM |

Incoming: Provide one value: measured IC50 of C[C@H]1CCCN(CCCOc2ccc(-c3ccnc(OCCCN4CCCCC4)c3)cc2)C1 [Example 58]
Outgoing: > 10 µM

Incoming: Provide one value: measured IC50 of C[C@@H]1C[C@@H](C)CN(CCCOc2ccc(-c3ccncc3)cc2)C1 (relative stereo) [Example 31]
Outgoing: 4 µM

Incoming: Provide one value: measured IC50 of O[C@H]1CC[C@H](c2ccc(OCCCN3CCCC3)cc2)CC1 [Example 63]
Outgoing: > 10 µM
